System: Capan-1
Test: MTS viability assay, CRLX-101 alone and with Olaparib, Capan-1 (schedule 1)
Type: cell-based
Settings: Homo sapiens, 72 hours, Olaparib alone, read-out: IC50 Absolute
testReadout: IC50 (µM)
Report as a plain number; the unit µM is understood.

Ask | What IC50 value was documented for this compound, O=C(c1cc(Cc2n[nH]c(=O)c3ccccc23)ccc1F)N1CCN(C(=O)C2CC2)CC1 [Olaparib] ?
Reply | 40.1
